Data provenance is PubChem BioAssay (NCI).

Below, each of the molecules is paired with its reported growth value.
- Test system: NCI/ADR-RES ovarian
- test.description: NCI-60 one-dose screen, 48 h (100 = growth as untreated, 0 = no growth, -100 = all killed)
- cond: 10 µM
The panel holds about 83,000 compounds, 20% with a hit somewhere; the sample as a whole holds those more often.
Entry rule: numbers only, all in %.

Take a look at these entries with their results.
molecule: NC(=O)c1cc([N+](=O)[O-])c(Cl)c([N+](=O)[O-])c1Cl
property.name: growth
reported: 20.4
--
molecule: [Cl][Hg][c]1ccc2ccccc2c1
property.name: growth
reported: 63.9
--
molecule: CC/C(=C/c1ccc(OC)cc1)[N+](=O)[O-]
property.name: growth
reported: 30.3
--
molecule: CC(Cc1ccc2c(c1)OCO2)NN (stereo unspecified)
property.name: growth
reported: 98.5
--
molecule: C/C1=C\[C@H](C)C[C@H](C)OC(=O)C[C@H](c2ccc(O)cc2)NC(=O)[C@@H](Cc2c(Br)[nH]c3ccccc23)N(C)C(=O)[C@H](C)NC(=O)[C@@H](C)C1
property.name: growth
reported: -21.9

Entry under review: `Cc1ccc(NC(=O)CBr)cc1` . Reported growth?
106

---

- System: UACC-257 melanoma
- test.description: NCI-60 one-dose screen, 48 h (100 = growth as untreated, 0 = no growth, -100 = all killed)
- cond: 10 µM
Compounds without any hit were thinned out: in the full panel of roughly 83,000, 20% have a hit.
property.name: growth (%)
Entry rule: numbers only, all in %.

compound: CC1CCC2(OC1)OC1C(O)C3C4CCC5CC(OC6OC(CO)C(OC7OC(CO)C(O)C(OC8OCC(O)C(O)C8O)C7OC7OC(CO)C(O)C(OC8OC(CO)C(O)C(O)C8O)C7O)C(O)C6O)C(O)CC5(C)C4CCC3(C)C1C2C (centres undefined)
uom: %
reported: -85.7

Entry under review: `O=C(CCl)Nc1ccc(Cl)cc1` . Reported growth?
69.9

Entry under review: `CC/C(=C/c1ccc(OC)cc1)[N+](=O)[O-]` . Reported growth?
4.44

Entry under review: `O=C(CBr)Nc1ccccc1` . Reported growth?
99.5

Entry under review: C#CC1(O)CCC(C(C)(C)C)CC1 (centres undefined) . Reported growth?
97

Entry under review: `C=C1C(=O)O[C@@H]2C[C@@H](C)[C@@H]3C=CC(=O)[C@@]3(C)[C@@H](O)[C@H]12` . Reported growth?
1.25

Entry under review: `COc1cc2c(c(OC)c1OC)-c1ccc(O)c(=O)cc1[C@@H](NC(C)=O)CC2` . Reported growth?
75.7

Entry under review: `C/C1=C\[C@H](C)C[C@H](C)OC(=O)C[C@H](c2ccc(O)cc2)NC(=O)[C@@H](Cc2c(Br)[nH]c3ccccc23)N(C)C(=O)[C@H](C)NC(=O)[C@@H](C)C1` . Reported growth?
0.643

Entry under review: `CN(C)CC1(N)C(=O)NC(=O)NC1=O` . Reported growth?
87.4

---

Below, each of the compounds is paired with its reported growth value.
- Tested on: NCI-H322M lung
- test.description: NCI-60 one-dose screen, 48 h (100 = growth as untreated, 0 = no growth, -100 = all killed)
- cond: 10 µM
Compounds without any hit were thinned out: in the full panel of roughly 83,000, 20% have a hit.
Entry rule: numbers only, all in %.

compound: O=C(CBr)Nc1ccccc1
uom: %
growth: 97.9
--
compound: Oc1c(Cl)cc(Cl)c2ccccc12.[Cu+2]
uom: %
growth: 92.1
--
compound: CCOP(=O)(OCC)C(O)c1ccccc1Cl (configuration not stated)
uom: %
growth: 93.8
--
compound: CCOP(=O)(OCC)/C(C#N)=C/c1ccc(Br)cc1
uom: %
growth: 105
--
compound: CN(C)CC1(N)C(=O)NC(=O)NC1=O
uom: %
growth: 104

Entry under review: Cc1ccc(C(=O)C2C(c3ccccc3)N2C2CCCCC2)cc1 (configuration not stated) . Reported growth?
107

Entry under review: `CCCCCCCC[N+]12CN3CN(CN(C3)C1)C2` . Reported growth?
84.8

Entry under review: COC(=O)C1C(O)C(C)C(O)C(C)/C=C\C=C(C)C(=O)Nc2c(C)c(OC(C)=O)c3c(c2O)C(=O)C(C)=C2OCOC(=C23)C(C)=CC(C)(O)C(O)C(C)C1O (configuration not stated) . Reported growth?
106

Entry under review: `C[C@@H]1C[C@@H]([C@H](O)CC2CC(=O)NC(=O)C2)C(=O)[C@@H](C)C1` . Reported growth?
2.7

Entry under review: `N#CCc1ccccc1` . Reported growth?
105

Entry under review: CC1CCC2(OC1)OC1C(O)C3C4CCC5CC(OC6OC(CO)C(OC7OC(CO)C(O)C(OC8OCC(O)C(O)C8O)C7OC7OC(CO)C(O)C(OC8OC(CO)C(O)C(O)C8O)C7O)C(O)C6O)C(O)CC5(C)C4CCC3(C)C1C2C (configuration not stated) . Reported growth?
13.2

Entry under review: `CN(CCCl)c1ccc(/C=C/C2=[N+](C)c3ccccc3C2(C)C)cc1` . Reported growth?
46.7

Entry under review: `C=C1C(=O)O[C@@H]2C[C@@H](C)[C@@H]3C=CC(=O)[C@@]3(C)[C@@H](O)[C@H]12` . Reported growth?
-24.7

---

- System: PC-3 prostate
- test.description: NCI-60 one-dose screen, 48 h
- cond: 10 µM
Compounds without any hit were thinned out: in the full panel of roughly 83,000, 20% have a hit. The source made the active and inactive calls. Rule for the calls: active = growth percent below 10; inactive = the rest.
Pick one: 1.0 (active), 0.0 (inactive)

Illustrative cases are given below, each with its answer.
compound: [Cl][Sn]([c]1ccccc1)([c]1ccccc1)[c]1ccccc1
category.label: 1.0
--
compound: C[CH2][Hg][S]c1ccccc1C(=O)O
category.label: 0.0
--
compound: CN(CCCl)c1ccc(/C=C/C2=[N+](C)c3ccccc3C2(C)C)cc1
category.label: 1.0
--
compound: O=C(CCl)Nc1ccc(Cl)cc1
category.label: 0.0
--
compound: CCOP(=O)(OCC)C(O)c1ccccc1Cl (stereo unspecified)
category.label: 0.0

// param item: COC(=O)C1C(O)C(C)C(O)C(C)/C=C\C=C(C)C(=O)Nc2c(C)c(OC(C)=O)c3c(c2O)C(=O)C(C)=C2OCOC(=C23)C(C)=CC(C)(O)C(O)C(C)C1O (stereo unspecified) ; yields the recorded call
0.0

// param item: `CC(=O)Nc1c2sscc-2n(C)c1=O` ; yields the recorded call
1.0

// param item: `COc1cc2c(c(OC)c1OC)-c1ccc(O)c(=O)cc1[C@@H](NC(C)=O)CC2` ; yields the recorded call
0.0

// param item: `O=[N+]([O-])/C=C\c1ccc2c(c1)OCO2` ; yields the recorded call
0.0

// param item: COC12C(COC(N)=O)C3=C(C(=O)C(C)=C(N)C3=O)N1CC1C2N1C (stereo unspecified) ; yields the recorded call
0.0

// param item: `O=[N+]([O-])c1ccc(N2CCOCC2)c2c1no[n+]2[O-]` ; yields the recorded call
0.0

// param item: `CCCCCCCC[N+]12CN3CN(CN(C3)C1)C2` ; yields the recorded call
0.0

---

- System: T-47D breast
- test.description: NCI-60 one-dose screen, 48 h
- cond: 10 µM
Compounds without any hit were thinned out: in the full panel of roughly 83,000, 20% have a hit. Calls of active or inactive are those of the source. Rule for the calls: active = growth percent below 10; inactive = the rest.
Pick one: active, inactive

Illustrative cases are given below, each with its answer.
compound: CC/C(=C/c1ccc(OC)cc1OC)[N+](=O)[O-]
category.label: active

compound: O=[N+]([O-])c1ccc(Br)c([N+](=O)[O-])c1
category.label: inactive

compound: CN(C)CC1(N)C(=O)NC(=O)NC1=O
category.label: inactive

compound: C[CH2][Hg][S]c1ccccc1C(=O)O
category.label: active

compound: COS(=O)(=O)c1ccccc1
category.label: inactive

compound: CC[C@@H](C)[C@@H]1NC(=O)C(NC(=O)C(CC(C)C)N(C)C(=O)C2CCCN2C(=O)C(C)O)C(C)OC(=O)C(Cc2ccc(OC)cc2)N(C)C(=O)C2CCCN2C(=O)C(CC(C)C)NC(=O)C(C)C(=O)C(C(C)C)OC(=O)C[C@H]1O (stereo partly specified)
category.label: active

// param item: `S=C=NCCc1ccccc1` ; yields the recorded call
inactive

// param item: `O=[N+]([O-])/C=C/c1ccc(Cl)cc1[N+](=O)[O-]` ; yields the recorded call
active

// param item: `COc1cc2c(c(OC)c1OC)-c1ccc(O)c(=O)cc1[C@@H](NC(C)=O)CC2` ; yields the recorded call
inactive

// param item: COC12C(COC(N)=O)C3=C(C(=O)C(C)=C(N)C3=O)N1CC1C2N1C (stereo unspecified) ; yields the recorded call
inactive

// param item: CC1CCC2(OC1)OC1C(O)C3C4CCC5CC(OC6OC(CO)C(OC7OC(CO)C(O)C(OC8OCC(O)C(O)C8O)C7OC7OC(CO)C(O)C(OC8OC(CO)C(O)C(O)C8O)C7O)C(O)C6O)C(O)CC5(C)C4CCC3(C)C1C2C (stereo unspecified) ; yields the recorded call
inactive

// param item: `CC(C)(C)OOC(=O)/C=C\C(=O)OOC(C)(C)C` ; yields the recorded call
inactive

// param item: COc1ccccc1[As]=[As]c1ccccc1OC (stereo unspecified) ; yields the recorded call
active

// param item: `Cc1cc(C(C)(C)c2ccc(O)c(C)c2)ccc1O` ; yields the recorded call
inactive

// param item: `CN(CCCl)c1ccc(/C=C/C2=[N+](C)c3ccccc3C2(C)C)cc1` ; yields the recorded call
inactive

// param item: `Cc1cc(C)c(C[N+](C)(C)C)c(C)c1C` ; yields the recorded call
active
